Each entry below carries its reported sfGFP reporter fluorescence.
B1: library; numbered along this chain (parent)
chain: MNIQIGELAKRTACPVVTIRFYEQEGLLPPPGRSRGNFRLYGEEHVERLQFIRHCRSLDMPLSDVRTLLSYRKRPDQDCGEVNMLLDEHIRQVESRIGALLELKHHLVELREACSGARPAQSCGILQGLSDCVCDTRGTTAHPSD

- Variants of: B1
- experimentSummary: sfGFP reporter fluorescence (15 h) (µM FITC); higher = higher leak
- testParameters: library round: Round 1; ligand: none

[
  {
    "mutationDescriptor": "M60L P61N D64K K104T",
    "sfGFP reporter fluorescence": 0.137
  },
  {
    "mutationDescriptor": "D64K I90C K104V",
    "sfGFP reporter fluorescence": 0.0914
  },
  {
    "mutationDescriptor": "E112I D131C",
    "sfGFP reporter fluorescence": 0.065
  },
  {
    "mutationDescriptor": "G32S C55M",
    "sfGFP reporter fluorescence": 0.0668
  },
  {
    "mutationDescriptor": "D135A T136S",
    "sfGFP reporter fluorescence": 0.065
  },
  {
    "mutationDescriptor": "P61N C134M",
    "sfGFP reporter fluorescence": 0.102
  },
  {
    "mutationDescriptor": "M60L D64K P143A",
    "sfGFP reporter fluorescence": 0.353
  },
  {
    "mutationDescriptor": "E109A R111L",
    "sfGFP reporter fluorescence": 0.0646
  },
  {
    "mutationDescriptor": "N83T P143R",
    "sfGFP reporter fluorescence": 0.0618
  },
  {
    "mutationDescriptor": "P61N D64T D131C",
    "sfGFP reporter fluorescence": 0.139
  },
  {
    "mutationDescriptor": "D64T R111A",
    "sfGFP reporter fluorescence": 0.173
  },
  {
    "mutationDescriptor": "V108R P143M",
    "sfGFP reporter fluorescence": 0.0636
  },
  {
    "mutationDescriptor": "G36K P61N",
    "sfGFP reporter fluorescence": 0.0721
  },
  {
    "mutationDescriptor": "I90L D135A",
    "sfGFP reporter fluorescence": 0.0614
  },
  {
    "mutationDescriptor": "N83T D135V",
    "sfGFP reporter fluorescence": 0.0628
  },
  {
    "mutationDescriptor": "N83T L85A",
    "sfGFP reporter fluorescence": 0.0614
  },
  {
    "mutationDescriptor": "L107I P143R",
    "sfGFP reporter fluorescence": 0.0636
  },
  {
    "mutationDescriptor": "N83T D131H",
    "sfGFP reporter fluorescence": 0.0632
  },
  {
    "mutationDescriptor": "N83T V108N",
    "sfGFP reporter fluorescence": 0.0633
  },
  {
    "mutationDescriptor": "V82I E112I D131C",
    "sfGFP reporter fluorescence": 0.0625
  },
  {
    "mutationDescriptor": "D64A E94R",
    "sfGFP reporter fluorescence": 0.0816
  },
  {
    "mutationDescriptor": "N83T C123L",
    "sfGFP reporter fluorescence": 0.0594
  },
  {
    "mutationDescriptor": "G128I D135P",
    "sfGFP reporter fluorescence": 0.074
  },
  {
    "mutationDescriptor": "D131T V133P",
    "sfGFP reporter fluorescence": 0.0641
  },
  {
    "mutationDescriptor": "G128I D135A",
    "sfGFP reporter fluorescence": 0.0699
  },
  {
    "mutationDescriptor": "P61N D135R",
    "sfGFP reporter fluorescence": 0.0732
  },
  {
    "mutationDescriptor": "N83T R111A",
    "sfGFP reporter fluorescence": 0.0564
  },
  {
    "mutationDescriptor": "L126I D131C",
    "sfGFP reporter fluorescence": 0.0635
  },
  {
    "mutationDescriptor": "N83T H89Q",
    "sfGFP reporter fluorescence": 0.0608
  },
  {
    "mutationDescriptor": "P61N D64K K104V L107C G128I",
    "sfGFP reporter fluorescence": 0.427
  },
  {
    "mutationDescriptor": "D64K D131A",
    "sfGFP reporter fluorescence": 0.131
  },
  {
    "mutationDescriptor": "N83T V108L D131C",
    "sfGFP reporter fluorescence": 0.0622
  },
  {
    "mutationDescriptor": "L62I K104V",
    "sfGFP reporter fluorescence": 0.072
  },
  {
    "mutationDescriptor": "P61N E112V",
    "sfGFP reporter fluorescence": 0.0641
  },
  {
    "mutationDescriptor": "N83V C134S",
    "sfGFP reporter fluorescence": 0.0579
  },
  {
    "mutationDescriptor": "N83T L107C G128M D135A",
    "sfGFP reporter fluorescence": 0.561
  },
  {
    "mutationDescriptor": "K104V R111D",
    "sfGFP reporter fluorescence": 0.0612
  },
  {
    "mutationDescriptor": "N83M D135A",
    "sfGFP reporter fluorescence": 0.0564
  },
  {
    "mutationDescriptor": "P61N I90L K104G",
    "sfGFP reporter fluorescence": 0.0641
  },
  {
    "mutationDescriptor": "N83T E112F",
    "sfGFP reporter fluorescence": 0.0601
  },
  {
    "mutationDescriptor": "G128S D135A",
    "sfGFP reporter fluorescence": 0.0652
  },
  {
    "mutationDescriptor": "N83M D131A",
    "sfGFP reporter fluorescence": 0.0614
  },
  {
    "mutationDescriptor": "V16T K104V",
    "sfGFP reporter fluorescence": 0.0693
  },
  {
    "mutationDescriptor": "N83T D135P",
    "sfGFP reporter fluorescence": 0.0602
  },
  {
    "mutationDescriptor": "P29L",
    "sfGFP reporter fluorescence": 0.0608
  },
  {
    "mutationDescriptor": "R111L G128I",
    "sfGFP reporter fluorescence": 0.0666
  }
]

Cited source for all entries: the supplement of paper PMC12783771
